Kindly state kinase still bound, per cent of control for each of the entries shown.
target: GRK7 (human); experiment: KINOMEscan competition binding; details: compound 10.0 µM
Write the number in % without appending the unit.

Record request: kinase still bound, per cent of control value, item `Cn1cc(C2=C(c3ccc(Cl)cc3Cl)C(=O)NC2=O)c2ccccc21`
51

Now consider `COc1ccc(CNC(=O)Nc2ncc([N+](=O)[O-])s2)cc1` and answer again.
100

Now consider `O=C1Nc2cc(Br)ccc2/C1=C1/Nc2ccccc2/C1=N\O` and answer again.
58

Now consider `Cc1cnc(-c2cnc(NCCNc3ccc(C#N)cn3)nc2-c2ccc(Cl)cc2Cl)[nH]1` and answer again.
91

----------
target: CAMK2A (human); assay: KINOMEscan competition binding; conditions: compound 10.0 µM
Kindly state kinase still bound, per cent of control for each of the entries shown.
Write the number in % without appending the unit.

Record request: kinase still bound, per cent of control value, item `Cn1cc(C2=C(c3ccc(Cl)cc3Cl)C(=O)NC2=O)c2ccccc21`
36

Now consider `COc1ccc(CNC(=O)Nc2ncc([N+](=O)[O-])s2)cc1` and answer again.
100

Now consider `Cc1cnc(-c2cnc(NCCNc3ccc(C#N)cn3)nc2-c2ccc(Cl)cc2Cl)[nH]1` and answer again.
89

Now consider `O=C1Nc2cc(Br)ccc2/C1=C1/Nc2ccccc2/C1=N\O` and answer again.
0.8

----------
molecular target: MERTK (human) (UniProt Q12866); assay: KINOMEscan competition binding; settings: compound 10.0 µM
Sequence (Q12866 whole entry, looked up): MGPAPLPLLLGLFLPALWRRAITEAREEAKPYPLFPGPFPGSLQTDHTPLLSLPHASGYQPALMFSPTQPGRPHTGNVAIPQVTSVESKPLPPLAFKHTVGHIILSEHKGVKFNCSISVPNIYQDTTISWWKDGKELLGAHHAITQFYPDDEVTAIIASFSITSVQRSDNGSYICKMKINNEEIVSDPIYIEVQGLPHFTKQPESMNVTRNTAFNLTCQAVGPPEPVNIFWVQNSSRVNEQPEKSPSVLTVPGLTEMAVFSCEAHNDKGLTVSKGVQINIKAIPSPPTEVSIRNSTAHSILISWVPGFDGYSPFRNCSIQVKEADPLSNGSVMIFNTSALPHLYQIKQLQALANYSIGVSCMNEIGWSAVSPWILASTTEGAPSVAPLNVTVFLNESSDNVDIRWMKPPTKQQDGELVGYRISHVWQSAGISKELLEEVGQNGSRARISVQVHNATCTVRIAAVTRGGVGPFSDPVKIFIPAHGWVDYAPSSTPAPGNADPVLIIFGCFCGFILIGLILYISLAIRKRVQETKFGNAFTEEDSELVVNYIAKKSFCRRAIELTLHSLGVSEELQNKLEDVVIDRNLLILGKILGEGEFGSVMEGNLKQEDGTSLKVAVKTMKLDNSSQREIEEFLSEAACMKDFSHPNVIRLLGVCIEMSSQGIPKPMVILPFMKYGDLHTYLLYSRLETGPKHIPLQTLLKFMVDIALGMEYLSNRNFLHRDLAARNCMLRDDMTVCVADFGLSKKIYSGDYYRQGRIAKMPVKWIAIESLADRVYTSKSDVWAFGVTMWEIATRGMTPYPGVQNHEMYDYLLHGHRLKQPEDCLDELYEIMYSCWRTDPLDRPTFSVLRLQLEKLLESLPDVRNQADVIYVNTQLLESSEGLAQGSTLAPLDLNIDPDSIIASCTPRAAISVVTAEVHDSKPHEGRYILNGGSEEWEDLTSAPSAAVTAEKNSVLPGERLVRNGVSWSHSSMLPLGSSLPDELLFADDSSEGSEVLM
Kindly state kinase still bound, per cent of control for each of the entries shown.
Write the number in % without appending the unit.

Record request: kinase still bound, per cent of control value, item `Cc1cnc(-c2cnc(NCCNc3ccc(C#N)cn3)nc2-c2ccc(Cl)cc2Cl)[nH]1`
100

Now consider `O=C1Nc2cc(Br)ccc2/C1=C1/Nc2ccccc2/C1=N\O` and answer again.
0.4

Now consider `Cn1cc(C2=C(c3ccc(Cl)cc3Cl)C(=O)NC2=O)c2ccccc21` and answer again.
100

Now consider `COc1ccc(CNC(=O)Nc2ncc([N+](=O)[O-])s2)cc1` and answer again.
100

----------
Kindly state kinase still bound, per cent of control for each of the entries shown.
target: TNK2 (human); assay: KINOMEscan competition binding; details: compound 10.0 µM
Write the number in % without appending the unit.

Record request: kinase still bound, per cent of control value, item `Cc1cnc(-c2cnc(NCCNc3ccc(C#N)cn3)nc2-c2ccc(Cl)cc2Cl)[nH]1`
100

Now consider `Cn1cc(C2=C(c3ccc(Cl)cc3Cl)C(=O)NC2=O)c2ccccc21` and answer again.
100

Now consider `O=C1Nc2cc(Br)ccc2/C1=C1/Nc2ccccc2/C1=N\O` and answer again.
28

Now consider `COc1ccc(CNC(=O)Nc2ncc([N+](=O)[O-])s2)cc1` and answer again.
96

----------
molecular target: TXK (human); test: KINOMEscan competition binding; details: compound 10.0 µM
Kindly state kinase still bound, per cent of control for each of the entries shown.
Write the number in % without appending the unit.

Record request: kinase still bound, per cent of control value, item `Cc1cnc(-c2cnc(NCCNc3ccc(C#N)cn3)nc2-c2ccc(Cl)cc2Cl)[nH]1`
100

Now consider `Cn1cc(C2=C(c3ccc(Cl)cc3Cl)C(=O)NC2=O)c2ccccc21` and answer again.
100

Now consider `O=C1Nc2cc(Br)ccc2/C1=C1/Nc2ccccc2/C1=N\O` and answer again.
15

Now consider `COc1ccc(CNC(=O)Nc2ncc([N+](=O)[O-])s2)cc1` and answer again.
100

----------
molecular target: FGFR4 (human); test: KINOMEscan competition binding; conditions: compound 10.0 µM
OBSERVABLE: kinase still bound, per cent of control (%)
Write the number in % without appending the unit.

Record request: kinase still bound, per cent of control value, item `COc1ccc(CNC(=O)Nc2ncc([N+](=O)[O-])s2)cc1`
100

Now consider `Cn1cc(C2=C(c3ccc(Cl)cc3Cl)C(=O)NC2=O)c2ccccc21` and answer again.
88

Now consider `Cc1cnc(-c2cnc(NCCNc3ccc(C#N)cn3)nc2-c2ccc(Cl)cc2Cl)[nH]1` and answer again.
100

Now consider `O=C1Nc2cc(Br)ccc2/C1=C1/Nc2ccccc2/C1=N\O` and answer again.
21

----------
system: PIK3CA (human), P42336 [Q546K]; experiment: KINOMEscan competition binding; conditions: compound 10.0 µM
Sequence (P42336 whole entry Q546K, looked up): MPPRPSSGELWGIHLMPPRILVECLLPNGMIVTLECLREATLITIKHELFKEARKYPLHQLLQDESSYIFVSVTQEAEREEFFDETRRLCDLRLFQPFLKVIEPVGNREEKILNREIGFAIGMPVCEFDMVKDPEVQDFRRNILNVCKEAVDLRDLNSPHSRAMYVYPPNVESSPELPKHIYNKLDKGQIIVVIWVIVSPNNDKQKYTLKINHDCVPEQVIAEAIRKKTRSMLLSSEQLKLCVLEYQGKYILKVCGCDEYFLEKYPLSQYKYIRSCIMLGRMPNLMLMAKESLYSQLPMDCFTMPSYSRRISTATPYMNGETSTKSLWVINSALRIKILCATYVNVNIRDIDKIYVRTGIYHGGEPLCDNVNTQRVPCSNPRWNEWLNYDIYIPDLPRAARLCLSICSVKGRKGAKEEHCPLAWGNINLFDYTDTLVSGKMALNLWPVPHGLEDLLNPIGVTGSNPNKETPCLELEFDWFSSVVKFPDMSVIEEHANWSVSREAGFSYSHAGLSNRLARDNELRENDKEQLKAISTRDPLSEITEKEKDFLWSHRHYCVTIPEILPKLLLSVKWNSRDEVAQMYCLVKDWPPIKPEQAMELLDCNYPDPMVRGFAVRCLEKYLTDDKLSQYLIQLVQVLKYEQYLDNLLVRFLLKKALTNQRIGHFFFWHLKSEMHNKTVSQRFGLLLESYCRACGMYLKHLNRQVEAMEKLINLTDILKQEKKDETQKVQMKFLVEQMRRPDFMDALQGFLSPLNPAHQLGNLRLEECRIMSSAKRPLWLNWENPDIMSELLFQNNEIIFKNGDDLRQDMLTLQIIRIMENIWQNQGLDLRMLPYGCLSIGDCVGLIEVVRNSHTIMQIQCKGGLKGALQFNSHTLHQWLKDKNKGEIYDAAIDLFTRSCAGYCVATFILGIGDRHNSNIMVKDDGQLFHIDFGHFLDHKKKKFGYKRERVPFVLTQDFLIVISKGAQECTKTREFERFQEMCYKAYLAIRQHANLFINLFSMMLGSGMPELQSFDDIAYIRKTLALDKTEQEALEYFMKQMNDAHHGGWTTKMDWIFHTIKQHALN
Kindly state kinase still bound, per cent of control for each of the entries shown.
Write the number in % without appending the unit.

Record request: kinase still bound, per cent of control value, item `COc1ccc(CNC(=O)Nc2ncc([N+](=O)[O-])s2)cc1`
90

Now consider `O=C1Nc2cc(Br)ccc2/C1=C1/Nc2ccccc2/C1=N\O` and answer again.
100

Now consider `Cc1cnc(-c2cnc(NCCNc3ccc(C#N)cn3)nc2-c2ccc(Cl)cc2Cl)[nH]1` and answer again.
100

Now consider `Cn1cc(C2=C(c3ccc(Cl)cc3Cl)C(=O)NC2=O)c2ccccc21` and answer again.
90

----------
biological target: BMPR1A (human) (UniProt P36894); assay: KINOMEscan competition binding; settings: compound 10.0 µM
Sequence (P36894 whole entry, looked up): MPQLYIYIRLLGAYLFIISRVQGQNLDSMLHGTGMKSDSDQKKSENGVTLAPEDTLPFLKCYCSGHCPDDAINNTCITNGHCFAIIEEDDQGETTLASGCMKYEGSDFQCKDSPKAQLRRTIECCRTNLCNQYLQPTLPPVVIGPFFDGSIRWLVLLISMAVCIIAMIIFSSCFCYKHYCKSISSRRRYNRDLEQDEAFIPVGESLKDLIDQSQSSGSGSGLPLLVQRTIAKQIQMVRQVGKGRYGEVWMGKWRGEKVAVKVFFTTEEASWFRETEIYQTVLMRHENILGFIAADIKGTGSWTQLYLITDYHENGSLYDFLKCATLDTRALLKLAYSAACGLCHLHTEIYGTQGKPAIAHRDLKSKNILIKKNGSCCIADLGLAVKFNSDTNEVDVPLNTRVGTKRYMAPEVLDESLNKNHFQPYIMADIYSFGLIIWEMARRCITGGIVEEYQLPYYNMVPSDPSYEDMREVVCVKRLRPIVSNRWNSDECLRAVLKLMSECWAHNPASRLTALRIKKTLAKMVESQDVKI
OBSERVABLE: kinase still bound, per cent of control

Record request: kinase still bound, per cent of control value, item `O=C1Nc2cc(Br)ccc2/C1=C1/Nc2ccccc2/C1=N\O`
66%

Now consider `Cn1cc(C2=C(c3ccc(Cl)cc3Cl)C(=O)NC2=O)c2ccccc21` and answer again.
100%

Now consider `COc1ccc(CNC(=O)Nc2ncc([N+](=O)[O-])s2)cc1` and answer again.
78%

Now consider `Cc1cnc(-c2cnc(NCCNc3ccc(C#N)cn3)nc2-c2ccc(Cl)cc2Cl)[nH]1` and answer again.
100%

----------
biological target: ACVR1B (human); experiment: KINOMEscan competition binding; settings: compound 10.0 µM
OBSERVABLE: kinase still bound, per cent of control (%)
Write the number in % without appending the unit.

Record request: kinase still bound, per cent of control value, item `Cc1cnc(-c2cnc(NCCNc3ccc(C#N)cn3)nc2-c2ccc(Cl)cc2Cl)[nH]1`
100

Now consider `Cn1cc(C2=C(c3ccc(Cl)cc3Cl)C(=O)NC2=O)c2ccccc21` and answer again.
89

Now consider `COc1ccc(CNC(=O)Nc2ncc([N+](=O)[O-])s2)cc1` and answer again.
86

Now consider `O=C1Nc2cc(Br)ccc2/C1=C1/Nc2ccccc2/C1=N\O` and answer again.
77

----------
Kindly state kinase still bound, per cent of control for each of the entries shown.
molecular target: ANKK1 (human); assay: KINOMEscan competition binding; details: compound 10.0 µM
Write the number in % without appending the unit.

Record request: kinase still bound, per cent of control value, item `Cn1cc(C2=C(c3ccc(Cl)cc3Cl)C(=O)NC2=O)c2ccccc21`
86

Now consider `O=C1Nc2cc(Br)ccc2/C1=C1/Nc2ccccc2/C1=N\O` and answer again.
4.8

Now consider `Cc1cnc(-c2cnc(NCCNc3ccc(C#N)cn3)nc2-c2ccc(Cl)cc2Cl)[nH]1` and answer again.
100

Now consider `COc1ccc(CNC(=O)Nc2ncc([N+](=O)[O-])s2)cc1` and answer again.
100

----------
biological target: AAK1 (human); assay: KINOMEscan competition binding; conditions: compound 10.0 µM
Kindly state kinase still bound, per cent of control for each of the entries shown.
Write the number in % without appending the unit.

Record request: kinase still bound, per cent of control value, item `Cc1cnc(-c2cnc(NCCNc3ccc(C#N)cn3)nc2-c2ccc(Cl)cc2Cl)[nH]1`
100

Now consider `Cn1cc(C2=C(c3ccc(Cl)cc3Cl)C(=O)NC2=O)c2ccccc21` and answer again.
26

Now consider `COc1ccc(CNC(=O)Nc2ncc([N+](=O)[O-])s2)cc1` and answer again.
100

Now consider `O=C1Nc2cc(Br)ccc2/C1=C1/Nc2ccccc2/C1=N\O` and answer again.
0.75

----------
target: MAP3K11 (human) (UniProt Q16584); assay: KINOMEscan competition binding; conditions: compound 10.0 µM
Sequence (Q16584 whole entry, looked up): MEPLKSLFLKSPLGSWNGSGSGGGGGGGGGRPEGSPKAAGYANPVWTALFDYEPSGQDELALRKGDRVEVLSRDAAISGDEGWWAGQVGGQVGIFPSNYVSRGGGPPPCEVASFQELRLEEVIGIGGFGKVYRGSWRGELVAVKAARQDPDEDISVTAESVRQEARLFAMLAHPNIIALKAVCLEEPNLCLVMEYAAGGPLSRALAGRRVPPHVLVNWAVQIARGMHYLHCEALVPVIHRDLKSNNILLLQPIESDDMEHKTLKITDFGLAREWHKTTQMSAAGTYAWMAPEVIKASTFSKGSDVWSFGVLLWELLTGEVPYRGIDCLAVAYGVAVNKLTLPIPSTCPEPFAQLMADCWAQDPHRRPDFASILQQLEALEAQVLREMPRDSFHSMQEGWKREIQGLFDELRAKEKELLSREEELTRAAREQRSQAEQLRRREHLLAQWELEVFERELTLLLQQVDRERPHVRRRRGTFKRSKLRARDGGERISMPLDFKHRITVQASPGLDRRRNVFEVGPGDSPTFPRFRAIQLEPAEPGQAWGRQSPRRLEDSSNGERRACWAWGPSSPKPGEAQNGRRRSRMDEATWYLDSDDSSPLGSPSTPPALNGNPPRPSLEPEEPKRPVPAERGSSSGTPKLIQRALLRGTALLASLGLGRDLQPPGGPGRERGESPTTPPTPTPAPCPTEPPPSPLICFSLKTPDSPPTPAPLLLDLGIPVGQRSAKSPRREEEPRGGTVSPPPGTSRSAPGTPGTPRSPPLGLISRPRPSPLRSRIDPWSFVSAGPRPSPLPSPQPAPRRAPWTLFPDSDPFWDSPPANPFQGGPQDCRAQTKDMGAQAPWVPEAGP
Kindly state kinase still bound, per cent of control for each of the entries shown.
Please give the number followed by its unit.

Record request: kinase still bound, per cent of control value, item `O=C1Nc2cc(Br)ccc2/C1=C1/Nc2ccccc2/C1=N\O`
5.6%

Now consider `COc1ccc(CNC(=O)Nc2ncc([N+](=O)[O-])s2)cc1` and answer again.
100%

Now consider `Cc1cnc(-c2cnc(NCCNc3ccc(C#N)cn3)nc2-c2ccc(Cl)cc2Cl)[nH]1` and answer again.
54%

Now consider `Cn1cc(C2=C(c3ccc(Cl)cc3Cl)C(=O)NC2=O)c2ccccc21` and answer again.
100%

----------
molecular target: UniProtKB O94804; experiment: KINOMEscan competition binding; details: compound 10.0 µM
Sequence (O94804 whole entry, looked up): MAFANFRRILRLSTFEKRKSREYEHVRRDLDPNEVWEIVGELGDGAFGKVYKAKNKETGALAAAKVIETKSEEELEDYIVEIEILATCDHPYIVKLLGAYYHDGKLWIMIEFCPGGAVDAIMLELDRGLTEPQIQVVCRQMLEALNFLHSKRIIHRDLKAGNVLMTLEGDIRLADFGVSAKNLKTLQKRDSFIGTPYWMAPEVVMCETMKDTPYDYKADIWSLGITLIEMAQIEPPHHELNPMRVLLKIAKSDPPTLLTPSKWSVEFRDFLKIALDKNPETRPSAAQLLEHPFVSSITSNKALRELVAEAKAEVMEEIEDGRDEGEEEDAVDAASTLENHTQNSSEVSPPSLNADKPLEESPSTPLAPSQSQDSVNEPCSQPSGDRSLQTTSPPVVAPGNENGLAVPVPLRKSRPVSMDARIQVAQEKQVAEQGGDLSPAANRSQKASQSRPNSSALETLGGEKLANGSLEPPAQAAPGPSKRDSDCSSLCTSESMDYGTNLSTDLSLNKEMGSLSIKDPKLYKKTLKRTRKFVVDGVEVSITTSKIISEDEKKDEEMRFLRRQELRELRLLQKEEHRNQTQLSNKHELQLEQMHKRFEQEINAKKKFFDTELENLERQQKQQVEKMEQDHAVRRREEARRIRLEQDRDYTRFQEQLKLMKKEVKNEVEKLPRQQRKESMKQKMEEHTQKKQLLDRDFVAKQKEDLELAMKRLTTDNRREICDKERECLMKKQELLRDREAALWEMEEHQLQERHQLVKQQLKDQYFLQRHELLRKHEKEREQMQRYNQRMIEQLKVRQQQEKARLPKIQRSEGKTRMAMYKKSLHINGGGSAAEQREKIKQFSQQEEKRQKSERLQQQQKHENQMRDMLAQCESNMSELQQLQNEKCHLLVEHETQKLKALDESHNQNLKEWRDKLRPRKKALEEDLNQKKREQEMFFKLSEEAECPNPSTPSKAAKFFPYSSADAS
OBSERVABLE: kinase still bound, per cent of control

Record request: kinase still bound, per cent of control value, item `Cn1cc(C2=C(c3ccc(Cl)cc3Cl)C(=O)NC2=O)c2ccccc21`
97%

Now consider `Cc1cnc(-c2cnc(NCCNc3ccc(C#N)cn3)nc2-c2ccc(Cl)cc2Cl)[nH]1` and answer again.
100%

Now consider `COc1ccc(CNC(=O)Nc2ncc([N+](=O)[O-])s2)cc1` and answer again.
100%

Now consider `O=C1Nc2cc(Br)ccc2/C1=C1/Nc2ccccc2/C1=N\O` and answer again.
75%
